# TARGET ENTITY: Serine/threonine-protein kinase PINK1, mitochondrial (Homo sapiens)
# TEST PROTOCOL: Activation of FLAG tagged PINK1 (unknown origin) expressed in Flp-In TRex HEK293 cells co-expressing wild-type Parkin assessed as Parkin Ser65 phosphorylation at 50 uM after 24 hrs in absence of CCCP by immunoblotting analysis
# Assay type: cell-based
The source made the active and inactive calls. No cut-off for these calls is given here.
Respond with a class label; see YES = active, NO = inactive

What is the recorded call for this compound in the test? CC(C)OC(=O)[C@H](C)NP(=O)(OC[C@H]1O[C@@H](n2cnc3c(NCc4ccco4)ncnc32)[C@H](O)[C@@H]1O)Oc1ccccc1 (stereo partly specified)
YES

Could you please tell me the result logged for C[C@H](NP(=O)(OC[C@H]1O[C@@H](n2cnc3c(NCc4ccco4)ncnc32)[C@H](O)[C@@H]1O)Oc1ccccc1)C(=O)OC(C)(C)C (stereo partly specified) in this assay?
NO

Test call, this compound: "c1coc(CNc2ncnc3[nH]cnc23)c1"
NO

Per the assay record, what outcome was assigned to C[C@H](NP(=O)(OC[C@H]1O[C@@H](n2cnc3c(NCc4ccco4)ncnc32)[C@H](O)[C@@H]1O)Oc1ccccc1)C(=O)OCc1ccccc1 (stereo partly specified) ?
YES

What did the test return for "OC[C@H]1O[C@@H](n2cnc3c(NCc4ccco4)ncnc32)[C@H](O)[C@@H]1O" ?
YES

Write down the call the test reported for this compound. Item: COC(=O)[C@H](C)NP(=O)(OC[C@H]1O[C@@H](n2cnc3c(NCc4ccco4)ncnc32)[C@H](O)[C@@H]1O)Oc1ccccc1 (stereo partly specified)
YES
